# Tested on: L. donovani promastigotes
# TEST NAME: MTT assay, L. donovani (AG83) promastigotes
# Type: cell-based
# PROTOCOL CONDITIONS: Leishmania donovani, tested at 10, 50, 100 μM, read-out: Cytotoxicity (μM) L. donovani promastigotes (IC50)
# Protocol: L. donovani promastigotes (strain: MHOM/IN/1983/AG83) were obtained from the Indian Institute of Chemical Biology, Kolkata, India. Promastigotes were cultured in Schneider’s insect medium (Sigma-Aldrich Co., St. Louis, USA) as described elsewhere. […]
ASSAY METRIC: IC50 (µM)
Provide only the numeric value, understood in µM.

Record request: IC50 value, item CC1(C)C2CCC1(C)C(OC(=O)C=Cc1ccccc1)C2 (single isomer, unassigned; (-)) [Compound 1, (-)-Bornyl cinnamate]
15.6
